These records show pKi for UniProt:P07858.
Quick note: pKi means taking -log10 of the concentration in moles per liter.

// worked examples, pKi included
compound_structure	readout_number
COC(=O)/C=C/CNC(=O)CN1C(=O)[C@@H](COC(=O)Nc2cccc3ccccc23)N=C(c2ccccc2)c2ccccc21	4.60
COC(=O)/C=C/CNC(=O)CN1C(=O)[C@@H](COC(=O)NC2CCCCC2)N=C(c2ccccc2)c2ccccc21	4.91
COC(=O)/C=C/CNC(=O)CN1C(=O)[C@@H](COC(=O)Nc2ccc(OC)cc2)N=C(c2ccccc2)c2ccccc21	5.65
COC(=O)/C=C/CNC(=O)CN1C(=O)[C@@H](COC(=O)NC23CC4CC(CC(C4)C2)C3)N=C(c2ccccc2)c2ccccc21	4.86
CCCCNC(=O)OC[C@H]1N=C(c2ccccc2)c2ccccc2N(CC(=O)NC/C=C/C(=O)OC)C1=O	4.69

stdin: Could you share which pKi value was measured for COC(=O)/C=C/CNC(=O)CN1C(=O)[C@@H](COC(=O)Nc2ccc(Cl)cc2C(F)(F)F)N=C(c2ccc(OC)cc2)c2ccccc21 ?
stdout: 4.96

stdin: Could you share which pKi value was measured for COC(=O)/C=C/[C@H](CC(C)C)NC(=O)CN1C(=O)[C@@H](COC(=O)Nc2ccc(Cl)cc2C(F)(F)F)N=C(c2ccccc2)c2ccccc21 ?
stdout: 4.41

stdin: Could you share which pKi value was measured for COC(=O)/C=C/CNC(=O)CN1C(=O)[C@@H](COC(=O)Nc2ccc(Cl)cc2C(F)(F)F)N=C(c2ccccc2)c2cc(Cl)ccc21 ?
stdout: 5.21
